- ASSAY TEXT: Acute toxicity test, oral
- Assay type: in vivo
- CONDITION SUMMARY: rat, in vivo, po, male SD rats; judged from Table 4
TEST READOUT: LD50

Q: In one line, give reported LD50 of the entry `CCCC[C@@H](C)C[C@H](O)/C=C/[C@H]1[C@H](O)CC(=O)[C@@H]1SCCCCCC(=O)OC` .
A: ~100 mg/kg

Reference source: patent EP0722733A1
